# target or test system: T1, human IL-2Rβ (human, UniProt P14784 27-240, limits assumed)
# T1 construct: also called hIL-2Rβ; IL-2 receptor beta
# T1 sequence (looked up): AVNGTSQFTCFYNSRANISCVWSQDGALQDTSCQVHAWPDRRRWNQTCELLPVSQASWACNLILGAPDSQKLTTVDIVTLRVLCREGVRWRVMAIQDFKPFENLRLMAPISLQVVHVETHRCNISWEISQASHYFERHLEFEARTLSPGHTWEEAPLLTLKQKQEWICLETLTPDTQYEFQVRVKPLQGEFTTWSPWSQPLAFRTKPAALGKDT
# assay text: SPR, steady state
value type: Kd (nM)

# binder, value type, test value
measured = [
    ("hIL-15 V49R/I111A (ligand) NWVNVISDLKKIEDLIQSMHIDATLYTESDVHPSCKVTAMKCFLLELQRISLESGDASIHDTVENLIILANNSLSSNGNVTESGCKECEELEEKNIKEFLQSFVHIVQMFANTGGGGSGHHHHHHHHGGGLNDIFEAQKIEWHE", "Kd", 375),
    ("hIL-15 V49R/S7A (ligand) NWVNVIADLKKIEDLIQSMHIDATLYTESDVHPSCKVTAMKCFLLELQRISLESGDASIHDTVENLIILANNSLSSNGNVTESGCKECEELEEKNIKEFLQSFVHIVQMFINTGGGGSGHHHHHHHHGGGLNDIFEAQKIEWHE", "Kd", 220),
]
